Provide the reported inhibition of each item.
- procedureDetails: A qHTS for Small Molecule Inhibitors of Shiga Toxin; note: 0% is about no effect
- testSettings: Vero cells, Shiga toxin protein synthesis inhibition reporter; at 38.7 µM, stronger effect = higher value
In all, about 290,000 compounds went through this assay and about 27,000 (9.3%) were called active. Many of the other results were omitted from the sample, so actives are more common in it than they were.

Cc1ccccc1NC(=O)CCNS(=O)(=O)c1ccc2[nH]c(=O)oc2c1 : -2.35% (inactive)

Hi there! I need inhibition for each item below, if you can.
1. CC(=O)NC(CC(=O)O)c1ccc(F)cc1 (stereo not drawn)
2. O=C(CSCc1ccccc1)Nc1ccccc1
3. S=C(NN=C1CCN(Cc2ccccc2)CC1)NC1CCCCC1
4. CCN1C(=O)/C(=C2\SC(N3CCCCC3)=NC2=O)c2ccccc21

1. -5.08% (inactive)
2. 50.8% (active)
3. 9.13% (inactive)
4. 52.1% (active)

Please supply inhibition for each of the following items, keeping them in order.
1. Cc1nn2c(=O)cc(COC(=O)c3ccc(NC(=O)C(C)(C)C)cc3)nc2s1
2. CCOC(=O)c1c(NC(=O)CSc2nccc(=O)[nH]2)sc(C)c1C
3. Cc1ccc(C)c(N2C(=O)CS/C2=N\NC(=O)c2ccccc2Cl)c1

35.5% (inactive)
-11.1% (inactive)
-31.2% (inactive)

The following compounds each have a reported value; give each one's inhibition.
1. Cc1cc(NC(=O)Nc2ccccc2[N+](=O)[O-])no1
2. Cc1ccc(CN(CC(=O)NCC2CCCO2)S(=O)(=O)c2ccc(C)cc2)cc1 (stereo not drawn)
3. COc1cc(C)c(C)cc1S(=O)(=O)N1CCCc2ccccc21
4. O=C(O)c1cc(S(=O)(=O)N(Cc2ccccc2)c2ccccc2)ccc1Cl
5. CCC(=O)N1CCN(c2ccccc2NC(=O)COc2cccc(C)c2C)CC1

1: 28.7% (inactive); 2: -7.48% (inactive); 3: 16.5% (inactive); 4: -7.94% (inactive); 5: -4.98% (inactive)

Take each entry in turn and give its inhibition.
1. COc1ccc(-n2ncc3c(N4CCc5ccccc54)ncnc32)cc1
2. NS(=O)(=O)c1ccc(CNC(=O)c2cccc(Oc3ccccc3)c2)cc1
3. CN(C)S(=O)(=O)c1cccc(NC(=O)Cc2ccsc2)c1
4. Cc1c(CN2CC[C@@H](N3CCN(c4ccccn4)CC3)[C@H](O)C2)[nH]c2ccc(F)cc12

1. 105% (active)
2. 6.72% (inactive)
3. -2.02% (inactive)
4. -5.39% (inactive)

Dear reader, for each entry below, please note its inhibition.
1. Cc1cc(C)c(C#N)c(Nc2cccc(Br)c2)n1
2. O=C(CN1CCN(c2ccccn2)CC1)Nc1ccc(Br)cc1
3. CCOc1ccc2nc(N(CCN(C)C)C(=O)c3ccc4ccccc4c3)sc2c1
4. Cc1ccc(/C=N/NC(=O)Cn2nc(C)c(Br)c2C)o1
5. CCOC(=O)C1=C(CCc2ccccc2)NC(=O)NC1c1ccc2ccccc2c1 (stereo not drawn)
6. O=C(CNC(=O)Cc1ccccc1)N=Nc1c(O)[nH]c2ccc(Br)cc12

-8.95% (inactive)
-9.75% (inactive)
25.9% (inactive)
-6.63% (inactive)
2.87% (inactive)
3.9% (inactive)

Look at each compound and report its inhibition.
1. O=C(Nc1nnc(C2=COCCO2)o1)c1ccc([N+](=O)[O-])s1
2. NC1=NN(c2cccc(C(=O)O)c2)C(=O)C1
3. CC(=O)OCC(NC(=O)C(Cc1ccccc1)NC(=O)OC(C)(C)C)C1OC(n2ccc(=O)[nH]c2=O)C(OC(C)=O)C1OC(C)=O (stereo not drawn)
4. Cc1ccc(CC2(O)CCN(CCOc3ccc(O)cc3)CC2)cc1
5. COc1ccc(-n2cc(-c3ccccc3)c3c(=S)nc[nH]c32)cc1
6. O=C(O)c1cccc(N2C(=O)Nc3ccccc3N2O)c1
7. COc1ccc(-n2ncc3c(N4CCCc5ccccc54)ncnc32)cc1

-3.51% (inactive)
143% (active)
7.84% (inactive)
-5.63% (inactive)
-14.3% (inactive)
11.8% (inactive)
113% (active)

Batch: inhibition for all items listed.
1. CN(C)c1ccc(C(CC(=O)O)C(=O)O)cc1 (stereo not drawn)
2. CCOc1cc(-c2cc(-c3ccc(NC(C)=O)cc3)nc(N)c2C#N)ccc1O
3. C=CCN1CCN(C(=O)CCCc2ccccc2)CC1
4. CCOc1ccc(C(=O)COC(=O)c2ccc(-n3cnnn3)cc2)cc1
5. CCOc1cc(/C=C/c2nc3ccccc3c(=O)[nH]2)cc(Br)c1OC
6. CC/C(=N\NC(=O)c1c(C)nc2ccccn12)c1ccc(Cl)cc1
7. CC(CNC(=O)c1ccc(Br)o1)NC(=O)c1ccc(Br)o1 (stereo not drawn)

73.8% (active)
-1.91% (inactive)
9.38% (inactive)
-9.12% (inactive)
31.4% (inactive)
-1.53% (inactive)
10.2% (inactive)

Entry Fc1ccc(-c2ccc(NCCN3CCOCC3)nn2)cc1 ; inhibition = 51.7% (active)
